Experiment: Plasma concentration in CD1 mouse at 10 mg/kg, ip measured after 7 hrs by LC-MS/MS analysis
Type: ADME, organism-based

{"line.notation": "O=c1c2cn(CC3COC3)nc2nc(SCc2cccc(F)c2)n1-c1ccccc1", "concentration at 7 h": "100 nM"}
{"line.notation": "O=c1c2cn(C3COC3)nc2nc(SCc2cccc(F)c2)n1-c1ccccc1", "concentration at 7 h": "900 nM"}

----------
Assay: Thermodynamic solubility of the compound by quantitative nitrogen detection assay
Format: physicochemical
Settings: read-out: Therm_solubility
measurement.name: solubility thermodynamic (µM)

{"line.notation": "Cn1ncc2c(=O)n(-c3ccccc3)c(SCc3cccc(F)c3)nc21", "readout.relation": "<", "measured.value": 0.7}
{"line.notation": "Cn1ncc2c(=O)n(Cc3ccccc3)c(SCc3cccc(F)c3)nc21", "readout.relation": "=", "measured.value": 5}
{"line.notation": "O=c1c2cn(CC3COC3)nc2nc(SCc2cccc(F)c2)n1-c1ccccc1", "readout.relation": "=", "measured.value": 53}
{"line.notation": "Cn1ncc2c(=O)n(CCc3ccccc3)c(SCc3cccc(F)c3)nc21", "readout.relation": "=", "measured.value": 3}
{"line.notation": "O=c1c2cnn(C3COC3)c2nc(SCc2cccc(F)c2)n1-c1ccccc1", "readout.relation": "=", "measured.value": 8}
{"line.notation": "Cn1cc2c(=O)n(-c3ccccc3)c(SCc3cccc(F)c3)nc2n1", "readout.relation": "=", "measured.value": 69}
